- Tested on: TK-10
- test name: NCI tumour cell line growth inhibition, 48 h
Calls of active or inactive are those of the source. Cut-off read from the data, not from the text of the source: active = GI50 up to about 1.1 µM and inactive = higher.
GI50 by entry:

Worked cases, answers included:
Give its GI50 value. Item: C[C@@H]1CC[C@@]2(OC1)O[C@H]1C[C@H]3[C@@H]4CC[C@H]5C[C@@H](OC6OC(CO)C(OC7OC(CO)C(O)C(OC8OCC(O)C(O)C8O)C7OC7OC(CO)C(O)C(O)C7O)C(O)C6O)[C@H](O)C[C@]5(C)[C@H]4CC[C@]3(C)[C@H]1[C@@H]2C (some centres not stated) 4.36 µM (inactive)

Give its GI50 value. Item: `O=C1CCSSCCC(=O)NCCN1` > 100 µM (inactive)

Give its GI50 value. Item: Nc1cc2c(c3ccccc13)C(CCl)CN2C(=O)c1cc2cc(NC(=O)Nc3ccc4[nH]c(C(=O)N5CC(CCl)c6c5cc(N)c5ccccc65)cc4c3)ccc2[nH]1 (configuration not stated) 1.42 µM (inactive)

Give its GI50 value. Item: O=C(C/C(=N\NC(=O)C[n+]1ccccc1)C(=O)Nc1nc2ccc([N+](=O)[O-])cc2s1)CC(c1ccccc1)c1c(O)c2ccccc2oc1=O (configuration not stated) > 100 µM (inactive)

Give its GI50 value. Item: `O=S(=O)(O)c1cc(/N=[N+](\[O-])c2cc(S(=O)(=O)O)c3ccccc3c2)cc2ccccc12` > 100 µM (inactive)

Give its GI50 value. Item: `Cn1c(=O)c2c(ncn2CN2CCN(Cn3cnc4c3c(=O)n(C)c(=O)n4C)CC2)n(C)c1=O` 21.5 µM (inactive)

Give its GI50 value. Item: `CCOC(=O)/C(=C\c1ccnc2ccccc12)P(=O)(OCC)OCC` 4.43 µM (inactive)

Give its GI50 value. Item: CC(=O)OCC1OC(n2c(=O)n(-c3ccccc3)c(=O)c3cc(Br)cc(Br)c32)C(OC(C)=O)C(OC(C)=O)C1OC(C)=O (configuration not stated) > 100 µM (inactive)

Give its GI50 value. Item: `CCOC(=O)/C=C(/C(=O)OCC)n1cc(C)c(=O)n(Cc2cn(COCCOC(C)=O)nn2)c1=O` 14.2 µM (inactive)

Give its GI50 value. Item: CC(C)=CCCC(C)[C@H]1CC(O)C2(C)C3=CCC4C(C)(C)[C@@H](O)CC[C@]4(C)C3=CC[C@]12C (some centres not stated) 16.7 µM (inactive)

Continuing:
Give its GI50 value. Item: `O=[N+]([O-])/C=C/c1c(Cl)cccc1Cl` 2.67 µM (inactive)

Give its GI50 value. Item: CC1(C)CC2=C(Sc3ccccc3N2)C(=O)C1C(=O)C(=O)Nc1cccc([N+](=O)[O-])c1 (configuration not stated) > 100 µM (inactive)

Give its GI50 value. Item: `COC(=O)c1s/c(=N\C(=S)N(C)C)n(-c2ccc(Cl)cc2)c1C(=O)OC` > 100 µM (inactive)

====

- Tested on: OVCAR-3
- test name: NCI tumour cell line growth inhibition, 48 h
Activity calls are given as the source filed them. No stated cut-off is given here; in the data, active = GI50 up to about 1.1 µM and inactive = higher.
readout type: GI50

Query the reported GI50 for OVCAR-3; item: `CCN1C(NCCO)=NS(=O)(=O)c2ccccc21` > 100 µM (inactive)

Continuing:
Query the reported GI50 for OVCAR-3; item: `O=C(Nc1ccc(Cl)cc1)c1cc(S(=O)(=O)Nc2nc3cccnc3[nH]2)c(SSc2cc(Cl)c(C(=O)Nc3ccc(Cl)cc3)cc2S(=O)(=O)Nc2nc3cccnc3[nH]2)cc1Cl` > 100 µM (inactive)

Query the reported GI50 for OVCAR-3; item: COC1CCC(=O)N1CN(C(C)=O)c1ccc(C)cc1 (stereo not given) > 100 µM (inactive)

Query the reported GI50 for OVCAR-3; item: `O=C1CCCc2cc3c(cc21)CC1(Cc2ccccc2C1)C3` 2.56 µM (inactive)

Query the reported GI50 for OVCAR-3; item: COC(=O)CCC(=O)NC1C2CC3CC(C2)CC1C3 (stereo not given) > 100 µM (inactive)

Query the reported GI50 for OVCAR-3; item: `C/C(=N\NC(=S)Nc1ccc(C)cc1)c1nc2cccnc2[nH]1` 0.483 µM (active)

Query the reported GI50 for OVCAR-3; item: `COc1cc(/C=C(\C#N)c2ccccc2)cc(OC)c1` > 100 µM (inactive)

Query the reported GI50 for OVCAR-3; item: COC(=O)C1=C(C(=O)OC)C2CCC1CC2=O (stereo not given) > 100 µM (inactive)

Query the reported GI50 for OVCAR-3; item: `CCCCCCCCCCCC[C@H](O)[C@H]1CC[C@H]([C@H](O)CCCC[C@H](O)CCCCC[C@@H](O)CC2=C[C@H](C)OC2=O)O1` 2.19 µM (inactive)

Query the reported GI50 for OVCAR-3; item: `COC(=O)c1nc2c3c(cccc3c1C(=O)OC)Nc1ccccc1-2` 36.6 µM (inactive)

====

GI50 by entry:
- System: RPMI-8226
- test name: NCI tumour cell line growth inhibition, 48 h
Activity calls are given as the source filed them. Rule as the data show it: active = GI50 up to about 1.1 µM and inactive = higher.

Worked cases, answers included:
Give its GI50 value. Item: C[C@@H]1CC[C@@]2(OC1)O[C@H]1C[C@H]3[C@@H]4CC[C@H]5C[C@@H](OC6OC(CO)C(OC7OC(CO)C(O)C(OC8OCC(O)C(O)C8O)C7OC7OC(CO)C(O)C(O)C7O)C(O)C6O)[C@H](O)C[C@]5(C)[C@H]4CC[C@]3(C)[C@H]1[C@@H]2C (stereo partly specified) 1.85 µM (inactive)

Give its GI50 value. Item: COC(=O)C1Cc2cc3c(cc2C1=O)CCC3 (stereo unspecified) > 100 µM (inactive)

Give its GI50 value. Item: `CN(C)/C=C/c1nnc([N+](=O)[O-])s1` < 0.01 µM (active)

Give its GI50 value. Item: `CCOC(=O)c1c(N)n(-c2ccccc2)c(=S)n(-c2ccccc2)c1=O` > 100 µM (inactive)

Give its GI50 value. Item: C[C@H]1[C@H](C)CC[C@]2(C(=O)OC3OC(CO)C(O)C(O)C3O)CC[C@]3(C)C(=CC[C@@H]4[C@@]5(C)C[C@@H](O)[C@@H]6OC(=O)c7cc(O)c(O)c(O)c7-c7c(cc(O)c(O)c7O)C(=O)OC[C@]6(CO)[C@@H]5CC[C@]43C)[C@H]12 (stereo partly specified) 66.7 µM (inactive)

As a next step, examine the compound that follows.
Give its GI50 value. Item: `CN(C)CCNC(=O)c1cccc2c(NCC(=O)O)c3ccccc3nc12` 16.5 µM (inactive)

====

- System: NCI-H460
- test name: NCI tumour cell line growth inhibition, 48 h
The source made the active and inactive calls. Rule as the data show it: active = GI50 up to about 1.1 µM and inactive = higher.
GI50 by entry:

Give its GI50 value. Item: `C=C1C/C(=C/C)C(=O)O[C@@H]2CCN3CC=C(COC(=O)[C@]1(C)O)[C@H]23` 84.9 µM (inactive)

Continuing:
Give its GI50 value. Item: CC1C=CC(O)[C@]2(CO)CC3(CCC12)OCCO3 (stereo not given in full) > 100 µM (inactive)

Give its GI50 value. Item: O=C(C/C(=N\NC(=O)C[n+]1ccccc1)C(=O)Nc1nc2ccc([N+](=O)[O-])cc2s1)CC(c1ccccc1)c1c(O)c2ccccc2oc1=O (stereo not given) > 100 µM (inactive)

Give its GI50 value. Item: `COc1ccc(/C=N/n2cnc3c(c2=O)S/C(=C2/SC(=S)N(c4ccc(C)cc4)C2=O)N3c2ccccc2)cc1` 68.7 µM (inactive)

Give its GI50 value. Item: COC(=O)CC1CN(C(=O)OCc2ccccc2)C(C)(C)O1 (stereo not given) > 100 µM (inactive)

Give its GI50 value. Item: `CN1Cc2c(nc(-c3ccccc3)c[n+]2[O-])N(C)C1` > 100 µM (inactive)

Give its GI50 value. Item: COc1ccc(CCN(C)C(=O)CC(C#N)(c2ccccc2)c2ccc(OC)c(OC)c2)cc1OC (stereo not given) > 100 µM (inactive)

Give its GI50 value. Item: CN(C)CC1CCCCCC(Br)C1=O (stereo not given) 17.7 µM (inactive)

Give its GI50 value. Item: `Nc1c2ccccc2nc2nccnc12` > 100 µM (inactive)

Give its GI50 value. Item: `Cc1ccc(C2=Nn3c(nc4sc(-c5ccccc5)cc4c3=O)SC2)cc1` > 100 µM (inactive)

====

- Test system: U-251
- test name: NCI tumour cell line growth inhibition, 48 h
Calls of active or inactive are those of the source. Cut-off read from the data, not from the text of the source: active = GI50 up to about 1.1 µM and inactive = higher.
readout type: GI50

Worked cases, answers included:
Give its GI50 value. Item: `COC1(OC)CC(CO)(CNc2cc(Cl)nc(N)n2)C1` > 100 µM (inactive)

Give its GI50 value. Item: `O=C1c2ccccc2C(=O)N1c1ccc(Cc2ccc(N3C(=O)c4ccccc4C3=O)cc2)cc1` > 100 µM (inactive)

Give its GI50 value. Item: `O=C(Nc1nc(C23CC4CC(CC(C4)C2)C3)cs1)c1cc2ccccc2oc1=O` > 100 µM (inactive)

Give its GI50 value. Item: `COc1cc(C[C@@]2(C)[C@@H]3CCC[C@H](CO)[C@@]3(C)CC[C@@H]2C)c(Cl)c(OC)c1` 15.5 µM (inactive)

Continuing:
Give its GI50 value. Item: C=C1C(=O)C23C(O)CC4C5(C)CCCC4(C(O)OC5)C2C(OC(C)=O)CC1C3O (centres undefined) 16.6 µM (inactive)

Give its GI50 value. Item: COc1ccc(N2C(=O)[C@@H]3[C@@H]4CC(C)CC[C@@H]4c4c([nH]c5ccccc45)[C@@H]3C2=O)cc1 (some centres undefined) 11.4 µM (inactive)

Give its GI50 value. Item: CC1=C(C)CC2(CCCCC2=O)[S+]([O-])C1 (centres undefined) > 100 µM (inactive)

Sourced from ChEMBL document CHEMBL1201862
